Assay: in vivo
Conditions: mouse, in vivo

| Smiles Record | MTD at 7 days [mg/kg] |
| --- | --- |
| O=c1[nH]c(=O)n([C@H]2C[C@H](O)[C@@H](CO)O2)cc1F | 75 |
